Attribute: O.D. 490/630 at 0.125 µg/mL
Biological target: T1, full-length recombinant human PAD4 (human, UniProt Q9UM07 1-663)
T1 construct: Full-length recombinant; also called peptidylarginine deiminase 4
T1 sequence (Q9UM07 whole entry): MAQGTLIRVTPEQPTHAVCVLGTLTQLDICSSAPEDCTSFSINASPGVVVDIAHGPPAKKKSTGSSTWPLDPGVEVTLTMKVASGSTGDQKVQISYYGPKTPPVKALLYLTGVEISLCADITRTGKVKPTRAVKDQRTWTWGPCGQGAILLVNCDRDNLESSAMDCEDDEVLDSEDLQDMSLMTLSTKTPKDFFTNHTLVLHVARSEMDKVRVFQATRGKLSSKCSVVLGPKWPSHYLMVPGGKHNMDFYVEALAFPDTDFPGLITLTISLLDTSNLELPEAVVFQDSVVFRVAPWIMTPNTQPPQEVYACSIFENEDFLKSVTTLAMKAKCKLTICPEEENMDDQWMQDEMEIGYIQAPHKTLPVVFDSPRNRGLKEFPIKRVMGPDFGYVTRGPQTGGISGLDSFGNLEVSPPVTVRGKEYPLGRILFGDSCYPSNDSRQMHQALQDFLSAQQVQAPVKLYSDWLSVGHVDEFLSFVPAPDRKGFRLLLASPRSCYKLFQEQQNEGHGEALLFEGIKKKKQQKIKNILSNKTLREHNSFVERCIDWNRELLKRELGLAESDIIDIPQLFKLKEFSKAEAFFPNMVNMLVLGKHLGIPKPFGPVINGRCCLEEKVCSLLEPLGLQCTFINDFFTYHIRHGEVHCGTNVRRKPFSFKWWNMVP
Experiment: ELISA, immobilized human PAD4
// print number alone

binder	O.D. 490/630 at 0.125 µg/mL
humanized anti-PAD4 antibody derived from G8, VH H4.15 / VL L4.17 (antibody, human IgG1, kappa, V domains shown, IgG1 kappa; also called G8 H4.15/L4.17) VH: EVQLLESGGGLVQPGGSLRLSCAASGFTFSTYAMGWVRQAPGKGLEFVSAIRNDGSWTGYGAAVKGRFTISRDNSKNTVYLQMNSLRAEDTAVYYCAKYTGSSGGSIGAWGQGTLVTVSS VL: SYELTQPPSVSVSPGQTARITCSGGNRNYYYGWYQQKPGQAPVTVIYANDKRPSGIPERFSGSTSGNTTTLTISGVQAEDEADYYCGTADTGKYVFGGGTKLTVLG	1.87
humanized anti-PAD4 antibody derived from G8, VH H4.32 / VL L4.29 (antibody, IgG1, V domains shown, IgG1 kappa; also called G8 H4.32/L4.29) VH: EVQLLESGGGLVQPGGSLRLSCAASGFTFSTYAMGWVRQAPGKGLEFVAAIRNDGSWTGYGAAVKGRVTISRDNSKNTVYLQMNSLRAEDTAVYYCAKYTGSSGGSIGAWGQGTLVTVSS VL: SYELTQPPSVSVSPGQTARITCSGGNRNYYYGWYQQKPGQAPVTVIYANDKRPSGIPERFSGSNSGSTTTLTISGVQAEDEADYYCGTADTGKYVFGGGTKLTVLG	1.89

O.D. 490/630 at 0.125 µg/mL lookup needed for humanized anti-PAD4 antibody derived from G8, VH H4.32 / VL L4.00 (antibody, IgG1, V domains shown, IgG1 kappa; also called G8 H4.32/L4.00) VH: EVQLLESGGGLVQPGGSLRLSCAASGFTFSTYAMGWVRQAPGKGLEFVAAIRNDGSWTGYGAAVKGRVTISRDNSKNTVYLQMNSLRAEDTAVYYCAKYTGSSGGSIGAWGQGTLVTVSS VL: SYELTQPPSVSVSPGQTARITCSGGNRNYYYGWYQQKPGQAPVLVIYANDKRPSGIPERFSGSSSGTTVTLTISGVQAEDEADYYCGTADTGKYVFGGGTKLTVLG , thanks.
1.76

O.D. 490/630 at 0.125 µg/mL lookup needed for humanized anti-PAD4 antibody derived from H7, VH H4.32 / VL L4.00 (antibody, IgG1, V domains shown, IgG1 kappa; also called H7 H4.32/L4.00) VH: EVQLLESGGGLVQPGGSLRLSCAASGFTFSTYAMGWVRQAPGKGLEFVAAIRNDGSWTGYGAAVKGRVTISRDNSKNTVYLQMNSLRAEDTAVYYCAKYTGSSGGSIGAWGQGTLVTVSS VL: SYELTQPPSVSVSPGQTARITCSGGSGRYYYGWYQQKPGQAPVLVIYSSTHRPSGIPERFSGSSSGTTVTLTISGVQAEDEADYYCGTADSSSYVFGGGTKLTVLG , thanks.
1.77

O.D. 490/630 at 0.125 µg/mL lookup needed for humanized anti-PAD4 antibody derived from H7, VH H4.15 / VL L4.15 (antibody, IgG1, V domains shown, IgG1 kappa; also called H7 H4.15/L4.15) VH: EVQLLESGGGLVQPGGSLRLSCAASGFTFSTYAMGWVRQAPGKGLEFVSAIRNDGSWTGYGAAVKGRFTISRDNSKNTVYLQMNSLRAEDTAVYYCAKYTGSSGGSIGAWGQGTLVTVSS VL: SYELTQPPSVSVSPGQTARITCSGGSGRYYYGWYQQKPGQAPVTVIYSSTHRPSGIPERFSGSNSGNTTTLTISGVQAEDEADYYCGTADSSSYVFGGGTKLTVLG , thanks.
1.83

O.D. 490/630 at 0.125 µg/mL lookup needed for humanized anti-PAD4 antibody derived from G8, VH H4.32 / VL L4.17 (antibody, IgG1, V domains shown, IgG1 kappa; also called G8 H4.32/L4.17) VH: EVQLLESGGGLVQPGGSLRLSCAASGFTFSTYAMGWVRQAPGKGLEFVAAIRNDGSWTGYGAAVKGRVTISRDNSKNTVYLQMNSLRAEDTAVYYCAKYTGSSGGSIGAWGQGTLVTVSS VL: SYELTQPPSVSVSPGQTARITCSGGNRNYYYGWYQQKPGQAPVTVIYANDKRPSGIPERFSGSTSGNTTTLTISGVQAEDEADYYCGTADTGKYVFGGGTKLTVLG , thanks.
1.89
